biological target: Non-receptor tyrosine-protein kinase TYK2 (Homo sapiens); details: at 0.1 µM;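 note: each value is a mean of the inhibition readings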
Reported Property: inhibition (%)
Numeric answer only, unit % assumed.

Fill in reported inhibition for this entry: `CS(=O)(=O)CCN(CC#N)Cc1ccc(-c2ccc3ncnc(Nc4ccc(OCc5cccc(F)c5)c(Cl)c4)c3c2)o1`
-3.9

Determine from records and report inhibition for `Nc1ncnc2occ(-c3ccc(NC(=O)Nc4cccc(C(F)(F)F)c4)cc3)c12`
-3.69

Quote inhibition reported for `COC(=O)Nc1nc2cc(Oc3ccc(NC(=O)Nc4cccc(C(=O)O)c4)cc3)ccc2[nH]1` please.
1.17

For `CN(C)c1cc2c(Nc3ccc4nc(Cc5ccccc5)[nH]c4c3)ncnc2cn1` , write its inhibition.
-8.04

Give me measured inhibition, please, for this molecule: `CCc1cccc(NC(=O)Nc2ccc(Oc3ccc4nc(NC(=O)OC)[nH]c4c3)cc2)c1`
-5.85

Provide measured inhibition value, entry: `COc1cc(C)c(NC(=O)CN(C)C)cc1Nc1nc(Nc2cccc(F)c2C(N)=O)c2cc[nH]c2n1`
1

Supply reported inhibition belonging to this molecule: `CCn1c(-c2nonc2N)nc2cnc(Oc3cccc(NC(=O)c4ccc(OCCN5CCOCC5)cc4)c3)cc21`
-1.13

Answer with the recorded inhibition for the molecule listed here: CC1=C(C(=O)Nc2ccc3[nH]ncc3c2)C(c2ccc(F)cc2)NC(=O)N1 (configuration not stated)
1.26

Given `CS(=O)(=O)Nc1ccc(N/C=C2\C(=O)Nc3ccccc32)cc1` , respond with its inhibition.
3.51

Determine from records and report inhibition for COc1ccc2cc(-c3c(-c4ccncc4)nc(-c4ccc([S+](C)[O-])cc4)n3C)ccc2c1 (configuration not stated)
-2.53

Supply recorded inhibition for `CC(=O)Nc1cccc(C#Cc2cncnc2Nc2ccc(OCc3cccc(F)c3)c(Cl)c2)n1` here.
4.58

Check the records and state inhibition for `CS(=O)(=O)CCNCc1ccc(-c2ccc3ncnc(Nc4ccc(OCc5ccccc5)c(Cl)c4)c3c2)o1`
1.67

Determine its reported inhibition: `CCn1c(-c2nonc2N)nc2ccncc21`
0.97

# return recorded inhibition for input `Nc1nc(-c2ccc3c(c2)C(=Cc2cc(Br)c(O)c(Br)c2)C(=O)N3)cs1`
1.72

In one line, give reported inhibition of the entry `Fc1cccc(COc2ccc(Nc3ncnc4sc(-c5cccs5)cc34)cc2Cl)c1` .
-0.26

Return the recorded inhibition value; entry: `NC(=O)c1cccc(Nc2nccc(Nc3cccc4[nH]ncc34)n2)c1`
4.66

Using known records, supply inhibition for `NS(=O)(=O)c1cccc(-c2ccc3c(NC(=O)C4CC4)n[nH]c3c2)c1`
0.42

---

target: Interleukin-1 receptor-associated kinase 4 (Homo sapiens) (UniProt Q9NWZ3); conditions: at 1 µM;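 note: mean inhibition values, from the GSK PKIS dataset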
Sequence (Q9NWZ3 whole entry): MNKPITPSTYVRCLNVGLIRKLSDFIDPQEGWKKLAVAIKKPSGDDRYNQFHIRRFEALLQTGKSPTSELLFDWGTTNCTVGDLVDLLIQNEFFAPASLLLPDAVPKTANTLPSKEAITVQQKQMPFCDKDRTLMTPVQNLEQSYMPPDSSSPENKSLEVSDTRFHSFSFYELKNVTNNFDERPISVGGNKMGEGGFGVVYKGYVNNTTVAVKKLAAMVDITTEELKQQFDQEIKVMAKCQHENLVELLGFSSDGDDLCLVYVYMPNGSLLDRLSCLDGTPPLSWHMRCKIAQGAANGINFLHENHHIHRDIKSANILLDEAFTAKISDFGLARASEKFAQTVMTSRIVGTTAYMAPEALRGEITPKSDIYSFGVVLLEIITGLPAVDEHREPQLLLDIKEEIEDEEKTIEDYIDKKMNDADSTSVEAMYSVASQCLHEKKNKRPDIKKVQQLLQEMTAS
Reported Property: inhibition (%)
All answers are understood in %, so give the number only.

Entry `O=C(Nc1n[nH]c2nc(-c3ccco3)c(Br)cc12)C1CC1` needs its inhibition filled in; supply it.
1.08

Identify measured inhibition corresponding to `COc1ccc(COc2ccc(Cc3cnc(N)nc3N)cc2OC)cc1`
0.89

Identify inhibition associated with the compound `O=C1NC(=O)C(c2cccc(Cl)c2)=C1Nc1ccc(O)c(Cl)c1`
0.96

Identify measured inhibition associated with `Nc1ncnc2occ(-c3ccc(NC(=O)Nc4cccc(C(F)(F)F)c4)cc3)c12`
2.34

Respond only with inhibition recorded for `O=C1NC(=O)C(c2ccc(Cl)cc2)=C1Nc1ccc(Cl)c(C(=O)O)c1`
-0.81

Quick one: give measured inhibition for `CNC(=O)c1cncc(/C=C/c2c(Cl)cccc2Cl)c1`
2.37

Give the reported inhibition for this compound. `COC(=O)Nc1nc2cc(Oc3cccc(NC(=O)Nc4cc(C(F)(F)F)ccc4F)c3)ccc2[nH]1`
-0.12

Return inhibition for the following compound: `Fc1cccc(COc2ccc(Nc3ncnc4sc(-c5cccs5)cc34)cc2Cl)c1`
1.34

Determine its reported inhibition: `CCn1c(-c2nonc2N)nc2ccncc21`
0.65

Find the measured inhibition of `CC(C)=Cc1cccc2c1/C(=N/Nc1ccc(S(N)(=O)=O)cc1)C(=O)N2` and report it.
0.79

Supply measured inhibition of COc1ccc2cc(-c3c(-c4ccncc4)nc(-c4ccc([S+](C)[O-])cc4)n3C)ccc2c1 (configuration not stated) in your reply.
1.12

Provide measured inhibition value, entry: `NC(=O)c1ccc(-c2nc(-c3ccccn3)c(-c3ccc4c(c3)OCO4)[nH]2)cc1`
1.06

---

biological target: Phosphatidylinositol 4,5-bisphosphate 3-kinase catalytic subunit alpha isoform (Homo sapiens) (UniProt P42336); conditions: at 1 µM;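 note: values are mean percent inhibition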
Sequence (P42336 whole entry, canonical isoform): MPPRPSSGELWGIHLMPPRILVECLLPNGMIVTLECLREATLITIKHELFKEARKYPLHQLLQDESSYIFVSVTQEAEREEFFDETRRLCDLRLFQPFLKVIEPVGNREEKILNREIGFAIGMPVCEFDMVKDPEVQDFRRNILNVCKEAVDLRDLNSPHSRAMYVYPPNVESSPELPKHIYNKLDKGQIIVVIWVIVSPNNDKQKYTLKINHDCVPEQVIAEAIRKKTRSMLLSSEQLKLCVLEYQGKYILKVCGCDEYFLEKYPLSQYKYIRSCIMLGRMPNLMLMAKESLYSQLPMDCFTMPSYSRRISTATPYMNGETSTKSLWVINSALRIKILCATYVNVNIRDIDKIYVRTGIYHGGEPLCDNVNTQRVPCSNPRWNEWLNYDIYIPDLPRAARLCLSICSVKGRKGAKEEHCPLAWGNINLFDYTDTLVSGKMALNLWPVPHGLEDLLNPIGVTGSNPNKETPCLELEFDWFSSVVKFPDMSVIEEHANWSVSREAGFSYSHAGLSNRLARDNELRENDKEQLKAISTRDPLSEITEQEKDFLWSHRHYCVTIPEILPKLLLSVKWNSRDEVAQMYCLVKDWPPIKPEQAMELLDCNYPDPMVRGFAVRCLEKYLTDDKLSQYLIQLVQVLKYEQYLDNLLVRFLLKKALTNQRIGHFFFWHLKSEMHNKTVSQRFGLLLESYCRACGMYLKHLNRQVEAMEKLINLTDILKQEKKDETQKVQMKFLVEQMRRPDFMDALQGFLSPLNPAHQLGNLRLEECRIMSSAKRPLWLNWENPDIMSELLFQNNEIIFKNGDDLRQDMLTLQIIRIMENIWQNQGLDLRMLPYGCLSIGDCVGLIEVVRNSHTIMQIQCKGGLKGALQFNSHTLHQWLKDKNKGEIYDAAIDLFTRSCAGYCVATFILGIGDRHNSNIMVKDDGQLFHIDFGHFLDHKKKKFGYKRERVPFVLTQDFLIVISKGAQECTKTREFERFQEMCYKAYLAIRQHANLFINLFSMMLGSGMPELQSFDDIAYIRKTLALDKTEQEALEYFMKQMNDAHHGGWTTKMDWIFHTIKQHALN
Reported Property: inhibition (%)
All answers are understood in %, so give the number only.

For the compound `COc1cc2ncn(-c3cc(OCc4ccccc4C(F)(F)F)c(C(N)=O)s3)c2cc1OC` , give its reported inhibition.
18.7

Give recorded inhibition. `Cc1ccc(NC(=O)c2ccnc(N3CCCC3)c2)cc1-c1ccc(C(=O)NCC2CC2)cc1`
14.5

Output measured inhibition for this item: `COc1ccccc1Nc1ncc(-c2ccccc2)o1`
6.11

Quickly give me recorded inhibition for `CCn1c(-c2nonc2N)nc2c(C#CC(C)(C)O)nc(OC[C@@H](N)c3ccccc3)cc21`
-3.41

Please give measured inhibition of the following entry: `CNC(=O)c1cncc(/C=C/c2c(Cl)cccc2Cl)c1`
2.83

For the compound `Nc1ncnc2occ(-c3ccc(NC(=O)Nc4cccc(C(F)(F)F)c4)cc3)c12` , give its reported inhibition.
4.88

Identify measured inhibition corresponding to `COc1cccc(-n2ncc3c(N/N=C/c4cccc(F)c4)ncnc32)c1`
4.79

Read off the recorded inhibition for `CC(C)=Cc1cccc2c1/C(=N/Nc1ccc(S(N)(=O)=O)cc1)C(=O)N2`
1.06

// fetch inhibition given entry `Cc1nn(C)c2cc(N(C)c3ccnc(Nc4cccc(S(N)(=O)=O)c4)n3)ccc12`
30.8

Please report inhibition for the following compound: `Fc1cccc(COc2ccc(Nc3ncnc4cc(-c5ccc[nH]5)sc34)cc2Cl)c1`
10.8

# return recorded inhibition for input `COC(=O)Nc1nc2cc(Oc3ccc(NC(=O)Nc4cccc(C(=O)O)c4)cc3)ccc2[nH]1`
-3.19

For the compound `NS(=O)(=O)c1ccc(N/N=C2\C(=O)Nc3ccc(C(=O)NCCc4c[nH]cn4)cc32)cc1` , give its reported inhibition.
4.76

Report measured inhibition; entry is `COc1cc(C)c(NC(=O)CN(C)C)cc1Nc1nc(Nc2cccc(F)c2C(N)=O)c2cc[nH]c2n1`
0.03

// Input: `CS(=O)(=O)CCNCc1ccc(-c2ccc3ncnc(Nc4ccc(OCc5cccc(F)c5)c(C(F)(F)F)c4)c3c2)o1` . Output its inhibition only.
7.14

Report inhibition, nothing else, for this compound: `Nc1ncnc2occ(-c3ccc(NC(=O)Nc4cc(C(F)(F)F)cc(C(F)(F)F)c4)cc3)c12`
2.7

Using the record for `CCn1c(-c2nonc2N)nc2c(N3CCCC3)nccc21` , state its measured inhibition.
-0.26

Answer with reported inhibition of `Cc1nnc(-c2ccc(C)c(-c3ccc(C(=O)Nc4cccc(C#N)c4)cc3)c2)o1`
1.71

Return the recorded inhibition value; entry: `COc1cc2ncn(-c3cc(O[C@H](C)c4ccccc4Cl)c(C(N)=O)s3)c2cc1OC`
36.1

Give recorded inhibition. `NC(=O)c1cccc(Nc2nccc(Nc3cccc4[nH]ncc34)n2)c1`
6.41

---

Give measured inhibition for each item. Keep answers brief.
target: Serine/threonine-protein kinase Sgk2 (Homo sapiens) (UniProt Q9HBY8); details: at 1 µM
Sequence (Q9HBY8 whole entry): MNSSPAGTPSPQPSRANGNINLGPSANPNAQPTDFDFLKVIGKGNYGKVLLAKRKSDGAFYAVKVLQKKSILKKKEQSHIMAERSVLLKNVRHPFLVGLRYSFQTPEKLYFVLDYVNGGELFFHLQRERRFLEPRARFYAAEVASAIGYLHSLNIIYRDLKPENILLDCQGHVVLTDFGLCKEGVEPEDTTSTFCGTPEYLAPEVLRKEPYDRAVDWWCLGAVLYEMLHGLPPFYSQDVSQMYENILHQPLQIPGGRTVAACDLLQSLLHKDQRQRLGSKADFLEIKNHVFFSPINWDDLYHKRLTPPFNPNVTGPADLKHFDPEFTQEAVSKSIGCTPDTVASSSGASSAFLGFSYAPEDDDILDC
Description: GSK_PKIS: SGK2 mean inhibition at 1 uM [Nanosyn]
Please respond with the number in % and leave the unit unwritten.

Assign inhibition to the following record: `O=C(Nc1n[nH]c2nc(-c3ccco3)c(Br)cc12)C1CC1`
-4.73

// fetch inhibition given entry `CS(=O)(=O)CCNCc1ccc(-c2ccc3ncnc(Nc4ccc(OCc5cccc(F)c5)c(C(F)(F)F)c4)c3c2)o1`
2.48

Note inhibition for the compound shown: `O=C1Nc2ccc(C(=O)c3ccco3)cc2C1=Cc1cc(Cl)c(O)c(Cl)c1`
3.35

Report measured inhibition; entry is `NC(=O)c1ccc(-c2nc(-c3ccccn3)c(-c3ccc4c(c3)OCO4)[nH]2)cc1`
8.98

Indicate its recorded inhibition; the compound in question is CC1=C(C(=O)Nc2ccc3[nH]ncc3c2)C(c2ccc(Cl)c(Cl)c2)CC(=O)N1 (stereo not given)
8.76

---

biological target: Serine/threonine-protein kinase 26 (Homo sapiens) (UniProt Q9P289); conditions: at 0.1 µM
Sequence (Q9P289 2-416 limits assumed): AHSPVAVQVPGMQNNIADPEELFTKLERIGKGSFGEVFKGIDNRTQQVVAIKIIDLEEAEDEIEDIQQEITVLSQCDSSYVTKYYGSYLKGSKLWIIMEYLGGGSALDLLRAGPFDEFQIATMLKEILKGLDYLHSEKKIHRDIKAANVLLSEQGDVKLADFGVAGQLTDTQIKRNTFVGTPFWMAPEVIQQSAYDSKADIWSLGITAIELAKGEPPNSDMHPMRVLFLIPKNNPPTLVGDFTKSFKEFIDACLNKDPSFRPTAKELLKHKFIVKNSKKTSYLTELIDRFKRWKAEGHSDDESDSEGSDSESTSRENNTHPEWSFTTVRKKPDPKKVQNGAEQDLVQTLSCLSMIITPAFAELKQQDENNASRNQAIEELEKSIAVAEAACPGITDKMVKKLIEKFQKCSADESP
Description: GSK_PKIS: MST4 mean inhibition at 0.1 uM [Nanosyn]
Reported Property: inhibition (%)
Numeric answer only, unit % assumed.

Find the measured inhibition of `Cc1nnc(-c2ccc(C)c(-c3ccc(C(=O)Nc4cccc(C#N)c4)cc3)c2)o1` and report it.
-1.07

Query inhibition for `CS(=O)(=O)CCNCc1ccc(-c2ccc3ncnc(Nc4ccc(OCc5cccc(F)c5)c(C(F)(F)F)c4)c3c2)o1`
-1.09

Answer with the recorded inhibition for the compound listed here: `O=C1Nc2ccc(C(=O)c3ccco3)cc2C1=Cc1cc(Cl)c(O)c(Cl)c1`
3.9
